assay: chemical genetic growth profiling, strain panel (AID 1159580);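 also: tested at 20 µM; growth read once vehicle control cultures reached saturation at 30 °C; 1 = growth at the plate median or of vehicle wells; lower values mean less growth of the strain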; details: S. cerevisiae deletion strains, growth OD, locus YHR142W, strain chs7, hits give low values
In all, about 5,500 compounds went through this assay and about 2,000 (36%) were called active. Not shown: some 18% with an inconclusive outcome. Some of the results follow.
reported.property: normalized growth

>>> print(df.to_string())
                                    compound  assay_result
 0  CC(N=C(NC#N)Nc1ccncc1)C(C)(C)C (stereo unspecified)          1.02
 1  NS(=O)(=O)c1cc2c(cc1Cl)NC(CSCc1ccccc1)=NS2(=O)=O          1.02
 2  CC12CCC3C(CC3(C)C)C(C)(CCC1=O)O2 (stereo unspecified)             1
 3  CC12CCC(=O)C=C1CCC1C2[C@@H](O)CC2(C)C1CC[C@]2(O)C(=O)COP(=O)(O)O (stereo partly specified)         0.993
 4    CC(=O)N[C@@H](Cc1c[nH]c2ccccc12)C(N)=O             1
 5  OC[C@H]1O[C@@](CO)(O[C@@H]2O[C@H](CO)[C@@H](O)[C@H](O)[C@H]2O)[C@@H](O[C@@H]2O[C@H](CO)[C@@H](O)[C@H](O)[C@H]2O)[C@@H]1O          1.01
 6  CS(=O)(=O)Nc1ccc([N+](=O)[O-])cc1Oc1ccccc1         0.991
 7                        C[n+]1ccccc1/C=N/O          1.02
 8  CN(C)[C@@H]1C(=O)C(C(=O)NCN2CCCC2)=C(O)[C@@]2(O)C(=O)C3=C(O)c4c(O)cccc4[C@@](C)(O)[C@H]3C[C@@H]12             1
 9         CC(C)(C)NC[C@H](O)c1ccc(O)c(CO)c1          1.01
10  OC[C@H]1O[C@@H](O[C@@H]2[C@@H](CO)O[C@](O)(CO)[C@H]2O)[C@H](O)[C@@H](O)[C@H]1O             1
11                            O=C(O)c1ccccc1         0.928
12           COc1cc(C/C=C/c2ccccc2)c(OC)cc1O         0.919
13          CN(C)C(=O)Oc1cccc([N+](C)(C)C)c1          1.03
14  C/C=C\C1=C(C(=O)O)N2C(=O)C(NC(=O)C(N)c3ccc(O)cc3)C2SC1 (stereo unspecified)          1.03
15  CC(C)=CC1C(C(=O)O)C1(C)C (stereo unspecified)          1.02

----------
experiment: chemical genetic growth profiling, strain panel (AID 1159580);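 also: tested at 20 µM; growth read once vehicle control cultures reached saturation at 30 °C; 1 = growth at the plate median or of vehicle wells; lower values mean less growth of the strain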; conditions: S. cerevisiae deletion strains, growth OD, locus YCL061C, strain MRC1 (second series), hits give low values
Out of some 5,500 compounds screened, about 2,000 (36%) were called active. Inconclusive results (about 18%) are left out. The list shows a part of the results.
reported.property: normalized growth

In [3]: df
Out[3]:
                                    molecule  assay_result
 0               NCCNS(=O)(=O)c1cccc2cnccc12          1.01
 1    CC(=O)NNC(=O)N1Cc2ccccc2Oc2ccc(Cl)cc21          1.02
 2                            NC(=O)c1ccccc1          1.01
 3  O=c1[nH]c2cc(Cl)ccc2c(O)c1-c1ccc(Oc2ccccc2)cc1         0.993
 4  C[C@@H](NC(=O)/C(C#N)=C/c1ccc(O)c(O)c1)c1ccccc1         0.983
 5  COc1ccc([C@@H]2Sc3ccccc3N(CCN(C)C)C(=O)[C@@H]2OC(C)=O)cc1         0.988
 6  CN(C)C1C(=O)C(C(N)=O)=C(O)C2(O)C(=O)C3=C(O)c4c(O)ccc(Cl)c4C(O)C3CC12 (stereo not drawn)             1
 7                            NNCc1cccc(O)c1         0.984
 8  COc1cc(CC(C)N)c(OC)cc1I (stereo not drawn)             1
 9  CN=C(NC#N)Nc1ccc(C2=NNC(=O)CC2C)cc1 (stereo not drawn)         0.999
10  CCCN(CCc1ccccc1)C1CCc2c(O)cccc2C1 (stereo not drawn)             1
11                               Cc1cn[nH]c1          0.99
12                   Cc1[nH]c2ccc(O)cc2c1CCN          1.01

----------
test: chemical genetic growth profiling, strain panel (AID 1159580);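 also: tested at 20 µM; growth read once vehicle control cultures reached saturation at 30 °C; 1 = growth at the plate median or of vehicle wells; lower values mean less growth of the strain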; conditions: S. cerevisiae deletion strains, growth OD, locus YJL129C, strain trk1
Among all 5,500 compounds or so, about 2,000 (36%) were called active. Inconclusive results (about 18%) are left out. No stated cut-off is given here; in the data, active means normalized growth mostly below about 0.91 (no sharp cut-off); inconclusive means no clear call, values can overlap the other calls; inactive means mostly above about 0.92. Some of the results follow.
Possible outcomes: active, inactive

In [3]: df
Out[3]:
                                   compound       cat
0                              Oc1cccc(O)c1  inactive
1                   CC[N+](C)(C)c1cccc(O)c1  inactive
2       Oc1c(Cl)cc(Cl)cc1Sc1cc(Cl)cc(Cl)c1O    active
3                    CC1=CC(=O)c2ccccc2C1=O  inactive
4  C/C=C\C1=C(C(=O)O)N2C(=O)C(NC(=O)C(N)c3ccc(O)cc3)C2SC1 (stereo not drawn)  inactive
5  CC(CCC(=O)O)[C@H]1CCC2C3C(=O)C[C@@H]4CC(=O)CC[C@]4(C)C3CC(=O)[C@@]21C (stereo partly drawn)  inactive
6                  CCOC(=O)NNc1nncc2ccccc12  inactive
7                   CC(C)C[C@@H](CN)CC(=O)O  inactive

----------
As shown below, each of these compounds has a reported normalized growth value.
experiment: chemical genetic growth profiling, strain panel (AID 1159580);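 also: tested at 20 µM; growth read once vehicle control cultures reached saturation at 30 °C; 1 = growth at the plate median or of vehicle wells; lower values mean less growth of the strain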; conditions: S. cerevisiae deletion strains, growth OD, locus YMR078C, strain ctf18, hits give low values
Screen size: about 5,500 compounds; about 2,000 (36%) were called active. Roughly 18% stayed inconclusive and do not appear here. The list shows a part of the results.

compound	normalized growth
C[C@H]1c2cccc(O)c2C(O)=C2C(=O)[C@]3(O)C(O)=C(C(N)=O)C(=O)[C@@H](N(C)C)[C@@H]3[C@@H](O)[C@@H]21	0.963
CC(=O)O[C@H]1CC[C@@]2(C)C(C[C@@H](OC(C)=O)[C@@]3(C)C4=CC(=O)O[C@@H](c5ccoc5)[C@]4(C)CCC23)C1(C)C (stereo partly specified)	0.981
O=C(O)c1cccnc1	0.991
CN(C)[C@@H]1C(=O)C(C(N)=O)=C(O)[C@@]2(O)C(=O)C3=C(O)c4c(O)ccc(Cl)c4[C@@H](O)[C@H]3C[C@@H]12	0.982
Nc1ccc(S(=O)(=O)NC(=O)c2ccccc2)cc1	1.01
CC(C)(C)NCC(O)c1ccc(O)c(CO)c1 (stereo unspecified)	1.02
CCCSc1ccc2nc(NC(=O)OC)[nH]c2c1	0.964
O=C1NC(O)=NC1(c1ccccc1)c1ccccc1	1.02
CNNC	0.994
COC(=O)/C(=C1\OC(=O)C(c2ccccc2)=C1O)c1ccccc1	1
CC(=O)O[C@@H]1CC[C@@]2(C)C(C[C@@H](OC(C)=O)[C@@]3(C)C4=CC(=O)O[C@@H](c5ccoc5)[C@]4(C)CCC23)C1(C)C (stereo partly specified)	1.01
CC1(C)CC2C1CC[C@]1(CBr)CCC3C(CC(=O)O)C(=O)O[C@@]32C1 (stereo partly specified)	0.998
Cc1cc(=O)[nH]c(=S)[nH]1	1.01
O=C(O)c1cc(O)c2c(c1)[C@@H]([C@H]1c3cc(C(=O)O)cc(O)c3C(=O)c3c(O[C@H]4O[C@H](CO)[C@@H](O)[C@H](O)[C@H]4O)cccc31)c1cccc(O[C@H]3O[C@H](CO)[C@@H](O)[C@H](O)[C@H]3O)c1C2=O	1
COc1ccc2cc(CCC(C)=O)ccc2c1	0.929
C=C1c2c(Cl)ccc(O)c2C(O)=C2C(=O)[C@]3(O)C(O)=C(C(N)=O)C(=O)[C@@H](N(C)C)[C@@H]3[C@@H](O)[C@H]12	0.983
CC(Cc1cccc(C(F)(F)F)c1)NCCOC(=O)c1ccccc1 (stereo unspecified)	1.02
OC[C@H]1O[C@@H](O[C@H]2[C@H](O)[C@@H](O)[C@@H](O)O[C@@H]2CO)[C@H](O)[C@@H](O)[C@@H]1O	1.01
CN(C)c1ccc(O)c2c1C[C@H]1C[C@H]3[C@H](N(C)C)C(=O)C(C(N)=O)=C(O)[C@@]3(O)C(=O)C1=C2O	0.993
CCN(CC)CCOC(=O)C(c1ccccc1)C1CCCCC1 (stereo unspecified)	0.949
CC(=O)N[C@@H](Cc1c[nH]c2ccccc12)C(N)=O	1
O=C(O)c1ccc(S(=O)(=O)N(Cl)Cl)cc1	1.03
OC[C@H]1O[C@@](CO)(O[C@@H]2O[C@H](CO)[C@@H](O)[C@H](O)[C@H]2O)[C@@H](O[C@@H]2O[C@H](CO)[C@@H](O)[C@H](O)[C@H]2O)[C@@H]1O	1.02
Cc1ccc2c(c1)C1(C)CCCC(C)(C(=O)O)C1CC2 (stereo unspecified)	0.994
NC(=O)NC(=O)Cc1ccccc1	0.997
CC(N=C(NC#N)Nc1ccncc1)C(C)(C)C (stereo unspecified)	1.02
O=C(OCc1ccccc1)c1ccccc1	0.957
NCC(=O)c1ccccc1	1
CCOC(=O)NNc1nncc2ccccc12	0.983
CC(=O)O[C@@H]1C=C[C@@]2(C)C(C[C@@H](OC(C)=O)[C@@]3(C)C4=CC(=O)O[C@@H](c5ccoc5)[C@]4(C)CCC23)C1(C)C (stereo partly specified)	0.072
CCCN(CCC)S(=O)(=O)c1ccc(C(=O)O)cc1	1.03
O=C(NCO)c1cccnc1	0.993
CS(=O)(=O)Nc1ccc([N+](=O)[O-])cc1Oc1ccccc1	0.975
Cc1cc(=O)oc2cc(O)c(O)cc12	1
OC[C@H]1O[C@@H](O[C@@H]2[C@@H](CO)O[C@](O)(CO)[C@H]2O)[C@H](O)[C@@H](O)[C@H]1O	0.959
CC(C)=CC1C(C(=O)O)C1(C)C (stereo unspecified)	0.975
